Target: PD-1/PD-L1 protein/protein interaction (Homo sapiens (Human), UniProt Q9NZQ7)
Sequence (Q9NZQ7 19-238): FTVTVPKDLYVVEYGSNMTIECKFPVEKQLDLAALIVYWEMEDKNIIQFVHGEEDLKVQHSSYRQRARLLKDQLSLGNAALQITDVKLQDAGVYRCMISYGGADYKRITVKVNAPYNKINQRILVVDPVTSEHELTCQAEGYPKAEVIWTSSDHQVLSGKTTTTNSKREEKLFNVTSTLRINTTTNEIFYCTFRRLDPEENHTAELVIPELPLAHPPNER
Test: PD-1/PD-L1 Homogeneous Time-Resolved Fluorescence (HTRF) Binding Assay
Conditions: recombinant human PD-L1 (19-238) His-tag, human PD-1 (25-167) Fc tag; 25° C., PBS pH 7.4
pIC50: −log10 of the molar value.
readout_kind: pIC50

substance_smiles	experimental_target	test_result
Cc1c(-c2ccccc2)cccc1N1CCC(N[C@H]2CC[C@H](O)CC2)CC1	PD-1/PD-L1 protein/protein interaction (Homo sapiens (Human), UniProt Q9NZQ7)	≥ 7.00
Cc1c(-c2ccccc2)cccc1N1CCC(N[C@H]2C[C@@H](O)C2)CC1	PD-1/PD-L1 protein/protein interaction (Homo sapiens (Human), UniProt Q9NZQ7)	≥ 7.00
Cc1c(-c2ccccc2)cccc1N1CCC(NCC(=O)N2CCN(C(C)C)CC2)CC1	PD-1/PD-L1 protein/protein interaction (Homo sapiens (Human), UniProt Q9NZQ7)	6.30 to 7.00
CC1(NC2CCN(c3cccc(-c4ccc5c(c4)OCCO5)c3C#N)CC2)CC1	PD-1/PD-L1 protein/protein interaction (Homo sapiens (Human), UniProt Q9NZQ7)	≥ 7.00

----------
Target: PD-1/PD-L1 protein/protein interaction (Homo sapiens (Human))
Test: PD-1/PD-L1 Homogeneous Time-Resolved Fluorescence (HTRF) Binding Assay
Conditions: recombinant human PD-L1 (19-238) His-tag, human PD-1 (25-167) Fc tag; 25° C., PBS pH 7.4
readout_kind: IC50

compound	test_result
N#Cc1c(-c2ccc3c(c2)OCCO3)cccc1N1CCC(N[C@H]2C[C@@H](CO)C2)CC1	≤ 100 nM
Cc1c(-c2ccccc2)cccc1N1CCC(NCC2(CO)CC2)CC1	≤ 100 nM
N#Cc1c(-c2ccc3c(c2)OCCO3)cccc1N1CCC(NC2CCCOC2)CC1 (stereo not drawn)	≤ 100 nM
